- Target or test system: hV1AR (Homo sapiens, UniProt P37288)
- Sequence (P37288 whole entry): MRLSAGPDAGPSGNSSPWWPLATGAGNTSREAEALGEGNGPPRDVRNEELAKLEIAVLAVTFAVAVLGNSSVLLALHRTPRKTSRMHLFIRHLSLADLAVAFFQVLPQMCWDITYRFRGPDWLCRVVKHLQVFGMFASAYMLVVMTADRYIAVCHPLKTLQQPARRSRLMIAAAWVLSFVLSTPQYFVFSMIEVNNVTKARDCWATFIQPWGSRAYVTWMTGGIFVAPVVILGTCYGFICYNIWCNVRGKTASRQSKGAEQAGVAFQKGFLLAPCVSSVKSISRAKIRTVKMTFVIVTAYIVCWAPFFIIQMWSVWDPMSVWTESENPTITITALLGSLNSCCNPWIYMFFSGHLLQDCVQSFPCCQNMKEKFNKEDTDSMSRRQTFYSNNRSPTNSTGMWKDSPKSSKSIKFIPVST
- Assay comment: GPCR functional assay: intracellular Ca2+ mobilization in transfected CHO cells
- Measurement conditions: concentrations up to 100 µM; control response to 10 nM AVP; read-out: V1AR antagonist effect IC50
Experimental readout: pIC50
To interpret pIC50, take it as minus log10 of a concentration measured in moles per litre.

Q) For the compound COc1c(O)cc2c(c1O)C(=O)c1c(cc(C)c(O)c1OC)C2=O [Aurantio-obtusin] , give its measured pIC50 value.
A) 4.17
